From: patent US11766628B2

Test: Partition of cannabinoids between degummed cannabis oil miscella and water/ethanol/base extraction solvent in a fiber conduit contactor
Type: physicochemical
Parameters: scale not given here
Conditions: Base Na2CO3; H2O/EtOH/Base (wt %) 77.6/19.9/2.5
Description: Degummed miscella from Example 1A were used to investigate the extraction of acid cannabinoids into a water/ethanol solvent using a fiber conduit contactor. Bases tested included sodium bicarbonate (NaHCO3), sodium carbonate (Na2CO3), potassium bicarbonate (KHCO3), and potassium carbonate (K2CO3). […] In Table 3 above, the Examples are ordered by decreasing polarity from top to bottom. […] Blank squares are where coefficients could not be calculated.
OUTCOME_MEASURE: Partition coefficient

molecule=CCCCCc1cc(O)c(C/C=C(\C)CCC=C(C)C)c(O)c1 value=1.53
molecule="CCCCCc1cc2c(c(O)c1C(=O)O)C=CC(C)(CCC=C(C)C)O2 (centres unmarked)" value=1.08
molecule=CCCCCc1cc(O)c(C/C=C(\C)CCC=C(C)C)c(O)c1C(=O)O value=−0.5
molecule="CCCCCc1cc(O)c2c(c1)OC(C)(CCC=C(C)C)C=C2 (centres unmarked)" value=−0.21
molecule=C=C(C)[C@@H]1CCC(C)=C[C@H]1c1c(O)cc(CCCCC)c(C(=O)O)c1O value=−2.22
molecule="CCCCCc1cc(O)c2c(c1)OC(C)(C)[C@@H]1CCC(C)=C[C@@H]21 [THC, tetrahydrocannabinol, reference compound]" value=0.1
molecule="C=C(C)[C@@H]1CCC(C)=C[C@H]1c1c(O)cc(CCCCC)cc1O [CBD, cannabidiol, reference compound]" value=−0.94
molecule="CCCCCc1cc2c(c(O)c1C(=O)O)[C@@H]1C=C(C)CC[C@H]1C(C)(C)O2 [THCA, tetrahydrocannabinolic acid]" value=−0.02

====

assay: Partition of cannabinoids between degummed cannabis oil miscella and water/ethanol/base extraction solvent in a fiber conduit contactor; assay type: physicochemical; design: scale not given here; conditions: Base KHCO3; H2O/EtOH/Base (wt %) 68.1/29.4/2.6
OUTCOME_MEASURE: Partition coefficient

compound=CCCCCc1cc(O)c(C/C=C(\C)CCC=C(C)C)c(O)c1C(=O)O outcome_measure="Partition coefficient" value=0.33
compound="CCCCCc1cc2c(c(O)c1C(=O)O)[C@@H]1C=C(C)CC[C@H]1C(C)(C)O2 [THCA, tetrahydrocannabinolic acid]" outcome_measure="Partition coefficient" value=1.26
compound=C=C(C)[C@@H]1CCC(C)=C[C@H]1c1c(O)cc(CCCCC)c(C(=O)O)c1O outcome_measure="Partition coefficient" value=−1.02
compound="C=C(C)[C@@H]1CCC(C)=C[C@H]1c1c(O)cc(CCCCC)cc1O [CBD, cannabidiol, reference compound]" outcome_measure="Partition coefficient" value=0.6
compound="CCCCCc1cc2c(c(O)c1C(=O)O)C=CC(C)(CCC=C(C)C)O2 (centres unmarked)" outcome_measure="Partition coefficient" value=2.09

====

assay: Partition of cannabinoids between degummed cannabis oil miscella and water/ethanol/base extraction solvent in a fiber conduit contactor; format: physicochemical; design: scale not given here; details: Base K2CO3; H2O/EtOH/Base (wt %) 87.5/10/2.5
Measured Partition coefficient, listed per entry for reference.
OUTCOME_MEASURE: Partition coefficient

molecule=CCCCCc1cc(O)c(C/C=C(\C)CCC=C(C)C)c(O)c1 outcome_measure="Partition coefficient" value=−0.07
molecule="CCCCCc1cc(O)c2c(c1)OC(C)(CCC=C(C)C)C=C2 (stereo not shown)" outcome_measure="Partition coefficient" value=0.16
molecule="CCCCCc1cc2c(c(O)c1C(=O)O)C=CC(C)(CCC=C(C)C)O2 (stereo not shown)" outcome_measure="Partition coefficient" value=−0.2
molecule="CCCCCc1cc(O)c2c(c1)OC(C)(C)[C@@H]1CCC(C)=C[C@@H]21 [THC, tetrahydrocannabinol, reference compound]" outcome_measure="Partition coefficient" value=0.13
